Reference source: patent US9849116B2

protocolDetails: clinical
appliedConditions: human, plasma, oral, 100 mg
quantity: Tmax
Kindly format the answer as number then unit.

Ask | Fill in the blank: the reported Tmax of CCCN[C@@H]1CCc2nc(N)sc2C1 [(R)-pramipexole] is ____.
Reply | 2 h

* * *

protocolDetails: clinical
appliedConditions: human, plasma and urine, po, 50 mg
Protocol: Safety observations included vital signs, physical examination, clinical laboratory tests, ECGs, and adverse event reporting. Blood and urine samples were collected pre-dose and for 72 hours post-dose to assess the pharmacokinetics.
quantity: CL renal

Ask | Fill in the blank: the reported CL renal of CCCN[C@@H]1CCc2nc(N)sc2C1 [(R)-pramipexole] is ____.
Reply | 628 mL/min

* * *

protocolDetails: clinical
appliedConditions: human, in vivo, oral, 150 mg
quantity: Cmax (ng/mL)
Give just the number in ng/mL; leave the unit off.

Ask | Fill in the blank: the reported Cmax of CCCN[C@@H]1CCc2nc(N)sc2C1 [(R)-pramipexole] is ____.
Reply | 315

* * *

protocolDetails: clinical
appliedConditions: human, plasma, po, 100 mg, AUC(0−12) (mean ± SD), Day 1, 100 mg oral dose, fasted
quantity: AUC(0-t)

Ask | Fill in the blank: the reported AUC(0-t) of CCCN[C@@H]1CCc2nc(N)sc2C1 [(R)-pramipexole] is ____.
Reply | 1780 ng·h/mL

* * *

protocolDetails: clinical
appliedConditions: human, plasma, oral, 50 mg
quantity: Vd/F

Ask | Fill in the blank: the reported Vd/F of CCCN[C@@H]1CCc2nc(N)sc2C1 [(R)-pramipexole] is ____.
Reply | 346 L

* * *

protocolDetails: clinical
appliedConditions: human, plasma, po, 300 mg
quantity: Tmax (h)
Give just the number in h; leave the unit off.

Ask | Fill in the blank: the reported Tmax of CCCN[C@@H]1CCc2nc(N)sc2C1 [(R)-pramipexole] is ____.
Reply | 1.96

* * *

protocolDetails: clinical
appliedConditions: human, in vivo, oral, 150 mg, Vz/F (mean ± SD), 150 mg SD, second 150 mg line, Food printed Fasted
quantity: Vd/F (L)
Give just the number in L; leave the unit off.

Ask | Fill in the blank: the reported Vd/F of CCCN[C@@H]1CCc2nc(N)sc2C1 [(R)-pramipexole] is ____.
Reply | 406

* * *

protocolDetails: clinical
appliedConditions: human, plasma, po, 150 mg, Vz/F (mean ± SD), single 150 mg oral dose, fasted
quantity: Vd/F (L)
Give just the number in L; leave the unit off.

Ask | Fill in the blank: the reported Vd/F of CCCN[C@@H]1CCc2nc(N)sc2C1 [(R)-pramipexole] is ____.
Reply | 411

* * *

protocolDetails: clinical
appliedConditions: human, in vivo, oral, 150 mg
quantity: Tmax (h)
Give just the number in h; leave the unit off.

Ask | Fill in the blank: the reported Tmax of CCCN[C@@H]1CCc2nc(N)sc2C1 [(R)-pramipexole] is ____.
Reply | 2.58

* * *

protocolDetails: clinical
appliedConditions: human, plasma, oral, 100 mg, AUC(0-12) (mean ± SD), Day 7, 100 mg Q12H on Days 3 through 6 and a single dose on Day 7, fasted
quantity: AUC(0-t) (µg·h/mL)
Give just the number in µg·h/mL; leave the unit off.

Ask | Fill in the blank: the reported AUC(0-t) of CCCN[C@@H]1CCc2nc(N)sc2C1 [(R)-pramipexole] is ____.
Reply | 2.46

* * *

protocolDetails: clinical
appliedConditions: human, plasma, po, 50 mg, AUC(0-t) (mean ± SD), single 50 mg oral dose, fasted
quantity: AUC(0-t) (ng·h/mL)
Give just the number in ng·h/mL; leave the unit off.

Ask | Fill in the blank: the reported AUC(0-t) of CCCN[C@@H]1CCc2nc(N)sc2C1 [(R)-pramipexole] is ____.
Reply | 989

* * *

protocolDetails: clinical
appliedConditions: human, plasma, po, 50 mg, AUC(0−t) (mean ± SD), Day 1, 50 mg oral dose, fasted
quantity: AUC(0-t) (ng·h/mL)
Give just the number in ng·h/mL; leave the unit off.

Ask | Fill in the blank: the reported AUC(0-t) of CCCN[C@@H]1CCc2nc(N)sc2C1 [(R)-pramipexole] is ____.
Reply | 1460

* * *

protocolDetails: clinical
appliedConditions: human, blood, po, 50 mg, AUC(inf) (mean ± SD), single 50 mg oral dose, fasted
quantity: AUC(0-inf) (ng·h/mL)
Give just the number in ng·h/mL; leave the unit off.

Ask | Fill in the blank: the reported AUC(0-inf) of CCCN[C@@H]1CCc2nc(N)sc2C1 [(R)-pramipexole] is ____.
Reply | 1240

* * *

protocolDetails: clinical
appliedConditions: human, plasma, po, 50 mg
quantity: Tmax (h)
Give just the number in h; leave the unit off.

Ask | Fill in the blank: the reported Tmax of CCCN[C@@H]1CCc2nc(N)sc2C1 [(R)-pramipexole] is ____.
Reply | 1.83

* * *

protocolDetails: clinical
appliedConditions: human, plasma, oral, 50 mg
quantity: Tmax

Ask | Fill in the blank: the reported Tmax of CCCN[C@@H]1CCc2nc(N)sc2C1 [(R)-pramipexole] is ____.
Reply | 1.75 h

* * *

protocolDetails: clinical
appliedConditions: human, plasma, po, 50 mg, AUC(0−12) (mean ± SD), Day 1, 50 mg oral dose, fasted
quantity: AUC(0-t) (ng·h/mL)
Give just the number in ng·h/mL; leave the unit off.

Ask | Fill in the blank: the reported AUC(0-t) of CCCN[C@@H]1CCc2nc(N)sc2C1 [(R)-pramipexole] is ____.
Reply | 1040

* * *

protocolDetails: clinical
appliedConditions: human, plasma, po, 300 mg, mean exposure (AUC0-∞), single oral 300 mg, fasted
quantity: AUC(0-inf) (ng·h/mL)
Give just the number in ng·h/mL; leave the unit off.

Ask | Fill in the blank: the reported AUC(0-inf) of CCCN[C@@H]1CCc2nc(N)sc2C1 [(R)-pramipexole] is ____.
Reply | 8620

* * *

protocolDetails: clinical
appliedConditions: human, plasma, oral, 50 mg
quantity: Cmax (ng/mL)
Give just the number in ng/mL; leave the unit off.

Ask | Fill in the blank: the reported Cmax of CCCN[C@@H]1CCc2nc(N)sc2C1 [(R)-pramipexole] is ____.
Reply | 191

* * *

protocolDetails: clinical
appliedConditions: human, plasma, po, 150 mg, AUC(inf) (mean ± SD), single 150 mg oral dose, fed
Description: Safety observations included vital signs, physical examination, clinical laboratory tests, ECGs, and adverse event reporting. Blood and urine samples were collected pre-dose and for 72 hours post-dose to assess the pharmacokinetics.
quantity: AUC(0-inf) (µg·h/mL)
Give just the number in µg·h/mL; leave the unit off.

Ask | Fill in the blank: the reported AUC(0-inf) of CCCN[C@@H]1CCc2nc(N)sc2C1 [(R)-pramipexole] is ____.
Reply | 3.4
